Recorded values, source paper PMC11202169.

biological target: hSULT1A3 (Homo sapiens); construct: 6-histidine tag (N); TEV site (N); made in house; host or cells: Escherichia coli BL21 (DE3), pET29a(+); experiment: Fluorescence-based microplate inhibition assay, hSULT1A3-catalyzed HN-241 4-O-sulfation; type: biochemical; settings: test compound 10 μM, HN-241 10 μM, 15 min; read-out: Residue activity (%) hSULT1A3
Sequence (P0DMM9 whole entry): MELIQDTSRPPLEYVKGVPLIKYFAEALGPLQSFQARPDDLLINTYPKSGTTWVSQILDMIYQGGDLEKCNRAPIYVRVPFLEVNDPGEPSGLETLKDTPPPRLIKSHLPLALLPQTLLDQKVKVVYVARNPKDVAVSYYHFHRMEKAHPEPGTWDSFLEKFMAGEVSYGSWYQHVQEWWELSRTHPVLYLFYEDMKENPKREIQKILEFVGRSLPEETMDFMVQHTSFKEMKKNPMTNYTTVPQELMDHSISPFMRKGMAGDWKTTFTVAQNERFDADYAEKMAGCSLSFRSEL
Listing of entries alongside the reported activity at 10 µM.
Just the number in %, nothing appended.

The examples below pair each entry with its known result.
compound=O=c1c(O)c(-c2ccc(O)cc2O)oc2cc(O)cc(O)c12 unit_symbol=% assay_result=55.7
compound=C/C1=C\CC(C)(C)/C=C/C(=O)/C(C)=C/CC1 unit_symbol=% assay_result=108
compound=COC1=C[C@@H]2[C@@H]3Cc4ccc(OC)c(O)c4[C@]2(CCN3C)CC1=O unit_symbol=% assay_result=110
compound="CC(C)=CCC[C@](C)(O)[C@H]1CC[C@]2(C)[C@@H]1[C@H](O)C[C@@H]1[C@@]3(C)CC[C@H](O)C(C)(C)[C@@H]3[C@@H](O[C@@H]3O[C@H](CO)[C@@H](O)[C@H](O)[C@H]3O[C@@H]3O[C@@H](C)[C@H](O)[C@@H](O)[C@H]3O)C[C@]12C [Ginsenoside Rg2]" unit_symbol=% assay_result=100

q: Please indicate activity at 10 µM recorded for Oc1cc(O)c2c(c1)O[C@@H](c1ccc(O)c(O)c1)[C@H](O)C2 [(-)-Catechin]
a: 46.8

q: Please indicate activity at 10 µM recorded for C[C@@H]1[C@H]2[C@H](O[C@@H]3O[C@H](CO)[C@@H](O)[C@H](O)[C@H]3O)OC=C(C(=O)O)[C@H]2C[C@@H]1O
a: 119

q: Please indicate activity at 10 µM recorded for CC(C)=CCOc1c2occc2cc2ccc(=O)oc12
a: 128

q: Please indicate activity at 10 µM recorded for COc1c2occc2cc2ccc(=O)oc12
a: 119

q: Please indicate activity at 10 µM recorded for COc1cc(O)cc2c1C(=O)C[C@@H](c1ccccc1)O2
a: 115

q: Please indicate activity at 10 µM recorded for C[C@H](CCC(=O)O)[C@H]1CC[C@H]2[C@@H]3[C@H](O)C[C@@H]4C[C@H](O)CC[C@]4(C)[C@H]3CC[C@]12C
a: 129

q: Please indicate activity at 10 µM recorded for COc1ccc(-c2oc3c(CC=C(C)C)c(O[C@@H]4O[C@H](CO)[C@@H](O)[C@H](O)[C@H]4O)cc(O)c3c(=O)c2O[C@@H]2O[C@@H](C)[C@H](O)[C@@H](O)[C@H]2O)cc1
a: 105

q: Please indicate activity at 10 µM recorded for O=C1C[C@@H](c2ccc(O[C@@H]3O[C@H](CO)[C@@H](O)[C@H](O)[C@H]3O)cc2)Oc2cc(O)ccc21
a: 100

q: Please indicate activity at 10 µM recorded for CC(C)=CCC[C@](C)(O)[C@H]1CC[C@]2(C)[C@@H]1[C@H](O)C[C@@H]1[C@@]3(C)CC[C@H](O)C(C)(C)[C@@H]3[C@@H](O[C@@H]3O[C@H](CO)[C@@H](O)[C@H](O)[C@H]3O)C[C@]12C [Ginsenoside Rh1]
a: 100
